# credit: patent US20200247812A1

- Tested on: MiaPaCa-2
- procedureDetails: Cell viability assay (resazurin), MiaPaCa-2
- Assay type: cell-based
- runConditions: Homo sapiens, MIA PaCa-2, 72-144 hr
measuredQuantity: IC50

CC(C)c1[nH]c(=O)c(-c2cc(Cl)ccc2F)cc1Nc1ccnc2[nH]ccc12
> 30 µM

// switching to the query molecule
IC50 lookup needed for CC(=O)Nc1cc(Nc2cc(-c3cc(Cl)ccc3F)c(=O)[nH]c2C(C)C)ccn1 , thanks.
> 30 µM

###

# IC50 annotations
- Tested on: HepG2
- procedureDetails: Cell viability assay (resazurin), HepG2
- Type: cell-based
- runConditions: Homo sapiens, 72-144 hr
Counter-ions that a name gives are not always drawn.

Worked examples follow.
CCc1[nH]c(=O)c(-c2cc(Cl)ccc2F)cc1Nc1ccnc(NC(C)=O)c1
18.2 µM
CN(C)c1[nH]c(=O)c(-c2cc(Cl)ccc2F)cc1Nc1ccnc2[nH]ccc12 [Compound 1.12, hydrochloride]
2.64 µM

Value wanted: IC50 (HepG2) of entry CC(C)c1[nH]c(=O)c(-c2cc(Cl)ccc2F)cc1Nc1ccncc1C(N)=O
> 30 µM

Value wanted: IC50 (HepG2) of entry CC(C)c1[nH]c(=O)c(-c2cc(Cl)ccc2F)cc1Nc1ccnc2[nH]ccc12
> 30 µM

Value wanted: IC50 (HepG2) of entry CC(=O)Nc1cc(Nc2cc(-c3cc(Cl)ccc3F)c(=O)[nH]c2C(C)C)ccn1
> 30 µM

Value wanted: IC50 (HepG2) of entry CC(=O)Nc1cc(Nc2cc(-c3cc(Cl)ccc3F)c(=O)[nH]c2C2CC2)ccn1
15.7 µM

Value wanted: IC50 (HepG2) of entry CC(C)c1[nH]c(=O)c(-c2cc(Cl)ccc2F)cc1Nc1ccnc2c1CC(=O)N2
> 30 µM

Value wanted: IC50 (HepG2) of entry CC(=O)Nc1cc(Nc2cc(-c3cc(Cl)ccc3F)c(=O)[nH]c2N(C)C)ccn1
12.6 µM

###

- System: phosphorylation of Smad-2 in THP-1 cells
- procedureDetails: Inhibition of phosphorylation of Smad-2 in THP-1 cells (Phospho-Smad2 ELISA)
- Format: cell-based
- runConditions: 3 μg
Where a name gives a salt, the structure may show the parent alone.
# % Inhibition of pSmad2 annotations
Give the value, in units of %, as a plain number.

Worked examples follow.
CN(C)c1[nH]c(=O)c(-c2cc(Cl)ccc2F)cc1Nc1ccncc1C(N)=O [Compound 1.32]
51.3
CC(C)c1[nH]c(=O)c(-c2cc(Cl)ccc2F)cc1Nc1ccncc1C(=O)NC[C@H](C)O [Compound 1.5]
47.3
CN(C)c1[nH]c(=O)c(-c2cc(Cl)ccc2F)cc1Nc1ccnc2[nH]ccc12 [Compound 1.12, hydrochloride]
51.6

// switching to the query compound
% Inhibition of pSmad2 lookup needed for C[C@@H](CO)NC(=O)c1cnccc1Nc1cc(-c2cc(Cl)ccc2F)c(=O)[nH]c1N(C)C [Compound 1.10] , thanks.
36.7

###

- testTarget: ALK 5 (Homo sapiens, UniProt P36897)
- Sequence (P36897 34-503): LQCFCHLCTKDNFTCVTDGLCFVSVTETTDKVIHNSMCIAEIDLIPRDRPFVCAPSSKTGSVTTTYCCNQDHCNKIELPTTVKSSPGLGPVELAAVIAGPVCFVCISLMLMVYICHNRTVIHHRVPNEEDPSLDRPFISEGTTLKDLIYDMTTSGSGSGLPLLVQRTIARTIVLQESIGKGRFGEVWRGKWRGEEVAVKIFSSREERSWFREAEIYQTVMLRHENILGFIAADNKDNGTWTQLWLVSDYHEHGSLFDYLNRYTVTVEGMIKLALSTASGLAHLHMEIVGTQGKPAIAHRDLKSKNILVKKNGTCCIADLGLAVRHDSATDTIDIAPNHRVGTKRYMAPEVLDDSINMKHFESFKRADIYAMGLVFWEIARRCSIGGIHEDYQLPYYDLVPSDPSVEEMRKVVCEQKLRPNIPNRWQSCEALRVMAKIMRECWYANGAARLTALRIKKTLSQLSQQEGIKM
Counter-ions that a name gives are not always drawn.
measuredQuantity: IC50

Worked examples follow.
CN(C)c1[nH]c(=O)c(-c2cc(Cl)ccc2F)cc1Nc1ccncc1C(=O)NC(CO)CO [Compound 1.11]
> 5000 nM
CN(C)c1[nH]c(=O)c(-c2cc(Cl)ccc2F)cc1Nc1ccncc1C(F)(F)F [Compound 1.15]
> 5000 nM
CNC(=O)c1cnccc1Nc1cc(-c2cc(Cl)ccc2F)c(=O)[nH]c1C1CC1 [Compound 1.68]
≤ 500 nM
CC(C)c1[nH]c(=O)c(-c2ccc(F)c(Cl)c2)cc1Nc1ccnc2[nH]ncc12 [Compound 1.84]
≤ 500 nM

IC50 lookup needed for CC(=O)Nc1cc(Nc2cc(-c3ccc(C(F)(F)F)nc3)c(=O)[nH]c2C(C)C)ccn1 [Compound 1.56] , thanks.
> 5000 nM

IC50 lookup needed for CSc1[nH]c(=O)c(-c2cc(Cl)ccc2F)cc1Nc1ccnc2ccncc12 [Compound 1.36] , thanks.
≤ 500 nM

IC50 lookup needed for CN(C)c1[nH]c(=O)c(-c2cc(Cl)ccc2F)cc1Nc1ccnc2[nH]ccc12 [Compound 1.12, hydrochloride] , thanks.
≤ 500 nM

IC50 lookup needed for CC(C)c1[nH]c(=O)c(-c2cc(Cl)ccc2F)cc1Nc1ccnc2c1CCC(=O)N2 [Compound 1.62] , thanks.
> 5000 nM

###

Target chain: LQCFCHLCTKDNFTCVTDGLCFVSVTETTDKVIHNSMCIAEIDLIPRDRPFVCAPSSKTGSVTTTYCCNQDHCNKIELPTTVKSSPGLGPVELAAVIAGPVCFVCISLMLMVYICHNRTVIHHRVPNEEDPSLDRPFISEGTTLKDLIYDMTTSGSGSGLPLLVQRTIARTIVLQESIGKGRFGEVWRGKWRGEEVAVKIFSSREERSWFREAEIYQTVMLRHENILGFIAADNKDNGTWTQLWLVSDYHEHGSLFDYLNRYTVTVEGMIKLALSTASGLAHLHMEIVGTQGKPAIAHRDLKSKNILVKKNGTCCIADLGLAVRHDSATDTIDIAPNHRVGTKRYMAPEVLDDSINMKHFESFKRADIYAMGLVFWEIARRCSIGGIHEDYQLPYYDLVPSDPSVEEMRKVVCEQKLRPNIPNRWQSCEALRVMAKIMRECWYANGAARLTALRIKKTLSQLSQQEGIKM
pIC50: −log10 of the molar value.
measuredQuantity: pIC50

O=c1[nH]c(C2CC2)c(Nc2ccnc3ccncc23)cc1-c1cc(Cl)ccc1F
≥ 6.30
C[C@H](O)CNC(=O)c1cnccc1Nc1cc(-c2cc(Cl)ccc2F)c(=O)n(C)c1
< 5.30
Cc1cccc(-c2cc(Nc3ccncc3C(=O)NC[C@H](C)O)c(N(C)C)[nH]c2=O)n1
< 5.30
CC(C)c1[nH]c(=O)c(-c2cc(Cl)ccc2F)cc1Nc1ccnc(NC(=O)CCC(F)(F)F)c1
< 5.30
CC(C)c1[nH]c(=O)c(-c2ccsc2)cc1Nc1ccnc2ccncc12
5.70 to 6.30

pIC50 lookup needed for CC(C)c1[nH]c(=O)c(-c2cc(Cl)ccc2F)cc1Nc1ccnc(NC(=O)C(C)(C)C)c1 , thanks.
< 5.30

pIC50 lookup needed for CN(C)c1[nH]c(=O)c(-c2cc(Cl)ccc2F)cc1Nc1ccncc1 , thanks.
< 5.30

pIC50 lookup needed for C[C@@H](CO)NC(=O)c1cnccc1Nc1c[nH]c(=O)c(-c2cc(Cl)ccc2F)c1 , thanks.
< 5.30

pIC50 lookup needed for CC(C)c1[nH]c(=O)c(-c2cc(Cl)ccc2F)cc1Nc1ccnc(N)c1 , thanks.
< 5.30

pIC50 lookup needed for CCc1[nH]c(=O)c(-c2cc(Cl)ccc2F)cc1Nc1ccncc1C(=O)NC , thanks.
≥ 6.30

pIC50 lookup needed for CC(C)c1[nH]c(=O)c(-c2cc(Cl)ccc2F)cc1Nc1ccncc1C(N)=O , thanks.
≥ 6.30

pIC50 lookup needed for CCc1[nH]c(=O)c(-c2ccc(F)c(Cl)c2)cc1Nc1ccnc2[nH]ccc12 , thanks.
≥ 6.30

pIC50 lookup needed for CN(C)c1[nH]c(=O)c(-c2cc(Cl)ccc2F)cc1Nc1ccnc2cc(C(F)(F)F)ccc12 , thanks.
5.30 to 5.70

pIC50 lookup needed for COc1[nH]c(=O)c(-c2cc(Cl)ccc2F)cc1Nc1ccnc2[nH]ccc12 , thanks.
≥ 6.30

pIC50 lookup needed for CC(C)c1[nH]c(=O)c(-c2cc(Cl)ccc2F)cc1Nc1ccncc1C(=O)NC[C@H](C)O , thanks.
≥ 6.30

pIC50 lookup needed for CN(C)c1[nH]c(=O)c(-c2cc(Cl)ccc2F)cc1Nc1ccnc2ccncc12 , thanks.
5.30 to 5.70

###

- Tested on: Panc-10.05
- procedureDetails: Cell viability assay (resazurin), Panc-10.05
- Type: cell-based
- runConditions: Homo sapiens, Panc1005, 72-144 hr
- Method: Different cell lines such as pancreatic, (MIA PaCa-2; ATCC®CRL-1420™ & and Panc-1; CRL-1469™), liver carcinoma (HepG2; ATCC® HB-8065™), lung epithelial carcinoma (A549; ATCC® CCL-185™) and others were seeded in their respective medium (DMEM, Cat #10569044, MEM, Cat #41090036; RPMI, Cat #22400089; all with 10% FBS, Gibco, ThermoFisher) at a cell count of 3000 cells per 100 μl per well in a 96 well edge plate (167425; ThermoFisher). […]
Counter-ions that a name gives are not always drawn.
measuredQuantity: IC50 (µM)
Give the value, in units of µM, as a plain number.

Worked examples follow.
CC(=O)Nc1cc(Nc2cc(-c3cc(Cl)ccc3F)c(=O)[nH]c2N(C)C)ccn1
28.5
CC(C)c1[nH]c(=O)c(-c2cc(Cl)ccc2F)cc1Nc1ccnc2[nH]ccc12
4.72

// switching to the query compound
IC50 lookup needed for CN(C)c1[nH]c(=O)c(-c2cc(Cl)ccc2F)cc1Nc1ccnc2[nH]ccc12 [Compound 1.12, hydrochloride] , thanks.
2.21
